Overview of recorded koff for various binders
# MEASUREMENT_TARGET: T1, cTnI quality control product recombinant protein (human, UniProt P19429 2-210, limits assumed)
# T1 construct: treated as the same molecule; also called cTnI antigen; cardiac troponin I
# T1 sequence (P19429 2-210 limits assumed): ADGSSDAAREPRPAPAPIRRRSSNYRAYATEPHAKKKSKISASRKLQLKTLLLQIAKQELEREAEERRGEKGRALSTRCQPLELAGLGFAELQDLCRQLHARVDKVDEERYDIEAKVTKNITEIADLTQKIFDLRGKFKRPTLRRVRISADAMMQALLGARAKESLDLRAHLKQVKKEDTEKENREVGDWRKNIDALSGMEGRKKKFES
# MEASUREMENT_DESCRIPTION: AMC sensor, antibody immobilised, cTnI in solution

{"columns": ["BINDER", "koff"],
 "data": [
  ["Mutation 1-40 (antibody, V domains shown, Built as m8) VH: EVQLQQSGPELVKPGASVKMSCKASGYTFTIYVLHWVKQKPGQGLEWIGYIQPYLDGTKYNEKFKGKATLTVDKSSSTAFMELSSLTSEDSAVYYCARSGYGNYGLAWLAYWGQGTLVTVSA VL: QAVVIQESALTTSPGETVTLTCRSSTGAVTTSNYANWVQEKPDHLFTGLIGGSNNRAPGVPARFSGSLIGDKAALTITGAQTEDEAIYFCALVYSNNWVFGGGTKLTVLG", "4.05e-05 s⁻¹"],
  ["Mutation 1-15 (antibody, V domains shown, Built as m8) VH: EVQLQQSGPELVKPGASVKMSCKASGYTFTLYVVHWVKQKPGQGLEWIGYINPYIDGTKYNEKFKGKATLTVDKSSSTAFMELSSLTSEDSAVYYCARSGYGQYGLAWLAYWGQGTLVTVSA VL: QAVVIQESALTTSPGETVTLTCRSSTGAVTTSNYANWVQEKPDHLFTGLIGGSQNRAPGVPARFSGSLIGDKAALTITGAQTEDEAIYFCALVYSNNWVFGGGTKLTVLG", "4.7e-05 s⁻¹"]
]}
